Measured MIC, listed per entry for reference.
test system: Pseudomonas aeruginosa; assay: Antibacterial activity against Pseudomonas aeruginosa ATCC 27853 assessed as inhibition of bacterial growth measured after 24 hrs incubation; assay type: functional
Provide the measurement as a number trailed by its unit.

CCn1cc(C(=O)O)c(=O)c2cc(F)c(N3CCN(C(=O)/C(C#N)=C/c4cn(Cc5ccccc5)c5ccccc45)CC3)cc21: 1 µg/mL
CCn1cc(C(=O)O)c(=O)c2cc(F)c(N3CCN(C(=O)/C(C#N)=C/c4cn(CCN5CCOCC5)c5ccccc45)CC3)cc21: 1 µg/mL
CCn1cc(C(=O)O)c(=O)c2cc(F)c(N3CCN(C(=O)/C(C#N)=C/c4cn(CC5CC5)c5ccccc45)CC3)cc21: 0.5 µg/mL

Moving on to another compound below.
[Q] Return the recorded MIC value; entry: `CCn1cc(C(=O)O)c(=O)c2cc(F)c(N3CCN(C(=O)/C(C#N)=C/c4cn(Cc5cccc(Cl)c5)c5ccccc45)CC3)cc21`
[A] 0.25 µg/mL
